Molecular target: N-formyl peptide receptor 2 (Homo sapiens)
Sequence (P25090 whole entry): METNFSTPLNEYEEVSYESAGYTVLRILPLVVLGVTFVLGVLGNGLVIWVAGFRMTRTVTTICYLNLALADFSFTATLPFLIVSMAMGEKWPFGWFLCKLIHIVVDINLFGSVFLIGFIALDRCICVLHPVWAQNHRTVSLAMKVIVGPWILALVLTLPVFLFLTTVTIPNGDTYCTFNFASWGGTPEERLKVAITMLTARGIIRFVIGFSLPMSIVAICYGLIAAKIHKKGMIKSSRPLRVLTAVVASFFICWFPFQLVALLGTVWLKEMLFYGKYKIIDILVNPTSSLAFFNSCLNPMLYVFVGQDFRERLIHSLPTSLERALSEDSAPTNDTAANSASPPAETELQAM
Assay: Antagonist activity at human FPR2 transfected in human HL-60 cells assessed as inhibition of WKYMVM-induced intracellular calcium mobilization preincubated for 10 mins followed by WKYMVM addition measured every 5 seconds for 240 secs by Fluo-4-AM dye based fluorescence assay
reported_endpoint: log10 IC50 (log10 of the value in nM)

{"columns": ["compound", "tested_system", "val"],
 "data": [
  ["N#Cc1ccc(C[C@H](NC(=O)Nc2ccc(F)cc2)C(=O)N2CCc3cc(F)ccc32)cc1", "N-formyl peptide receptor 2 (Homo sapiens)", 2.32],
  ["N#Cc1ccc(C[C@@H](NC(=O)Nc2ccc(F)cc2)C(=O)N2CCc3ccc(F)cc3C2)cc1", "N-formyl peptide receptor 2 (Homo sapiens)", 2.38],
  ["N#Cc1ccc(C[C@@H](NC(=O)Nc2ccc(F)cc2)C(=O)N2CCc3ccccc32)cc1", "N-formyl peptide receptor 2 (Homo sapiens)", 3.59],
  ["N#Cc1ccc(C[C@H](NC(=O)Nc2ccc(F)cc2)C(=O)N2Cc3ccc(F)cc3C2)cc1", "N-formyl peptide receptor 2 (Homo sapiens)", 3.64],
  ["N#Cc1ccc(C[C@@H](NC(=O)Nc2ccc(F)cc2)C(=O)N2CCc3cccnc32)cc1", "N-formyl peptide receptor 2 (Homo sapiens)", 3.08],
  ["N#Cc1ccc(C[C@H](NC(=O)Nc2ccc(F)cc2)C(=O)NC2CCCCNC2=O)cc1 (some centres undefined)", "N-formyl peptide receptor 2 (Homo sapiens)", 2.54],
  ["N#Cc1ccc(C[C@H](NC(=O)Nc2ccc(F)cc2)C(=O)N2Cc3ccccc3C2)cc1", "N-formyl peptide receptor 2 (Homo sapiens)", 3.64],
  ["N#Cc1ccc(C[C@H](NC(=O)Nc2ccc(F)cc2)C(=O)N2CCCc3ccccc32)cc1", "N-formyl peptide receptor 2 (Homo sapiens)", 1.11],
  ["N#Cc1ccc(C[C@@H](NC(=O)Nc2ccc(F)cc2)C(=O)NC2CCCCNC2=O)cc1 (some centres undefined)", "N-formyl peptide receptor 2 (Homo sapiens)", 3.58]
]}
